Provenance of the data: patent US7763615B2

test system: IGROV; assay: cells; assay type: cell-based; details: Homo sapiens, 48 h, 48 hours exposure, SRB
Can you tell me IC (TGI) for the items I'm about to list?
Please don't drop the unit; write it after the number.

Prompt: If you can, please state the reported IC (TGI) value of COc1c(C)cc2c(c1O)[C@@H]1C3[C@@H]4SC[C@]5(NCCc6c5[nH]c5c(C)cccc65)C(=O)COC[C@@H](c5c6c(c(C)c(OC(C)=O)c54)OCO6)N3[C@@H](O)[C@H](C2)N1C (stereo partly drawn) [Compound 36] .
Completion: 0.00721 µM

Prompt: Note, next up: COc1c(C)cc2c(c1O)[C@@H]1C3[C@@H]4SC[C@]5(NC(C)Cc6c5[nH]c5ccc(F)cc65)C(=O)COC[C@@H](c5c6c(c(C)c(OC(C)=O)c54)OCO6)N3[C@@H](O)[C@H](C2)N1C (stereo partly drawn) [Compound 41]
Completion: 0.00414 µM

Prompt: Note, next up: COc1c(C)cc2c(c1O)[C@@H]1C3[C@@H]4SC[C@]5(NCCc6c5[nH]c5ccc(F)cc65)C(=O)COC[C@@H](c5c6c(c(C)c(OC(C)=O)c54)OCO6)N3[C@@H](O)[C@H](C2)N1C (stereo partly drawn) [Compound 35]
Completion: 0.00772 µM

Prompt: Note, next up: C=COC(=O)Oc1c(C)c2c(c3c1[C@H]1SC[C@]4(NCCC5c6ccccc6NC54)C(=O)OC[C@@H]3N3C1[C@H]1c4c(cc(C)c(OC)c4OC(=O)OC=C)C[C@@H]([C@@H]3C#N)N1C)OCO2 (stereo partly drawn) [Compound 68]
Completion: 0.0616 µM

Prompt: Note, next up: COc1c(C)cc2c(c1O)[C@@H]1C3[C@@H]4SC[C@]5(C(=O)COC[C@@H](c6c7c(c(C)c(OC(C)=O)c64)OCO7)N3[C@@H](C#N)[C@H](C2)N1C)c1[nH]c2ccccc2c1CCN5C (stereo partly drawn) [Compound 14]
Completion: 0.744 µM

Prompt: Note, next up: COc1c(C)cc2c(c1O)[C@@H]1C3[C@@H]4SC[C@]5(NCCc6c5[nH]c5ccccc65)C(=O)COC[C@@H](c5c6c(c(C)c(OC(=O)OC(C)(C)C)c54)OCO6)N3[C@@H](C#N)[C@H](C2)N1C (stereo partly drawn) [Compound 57]
Completion: 0.46 µM

* * *

target: CYP2D6 (Homo sapiens); assay: in vitro; details: CYP2D6 (% inhibition)
Sequence (P10635 whole entry): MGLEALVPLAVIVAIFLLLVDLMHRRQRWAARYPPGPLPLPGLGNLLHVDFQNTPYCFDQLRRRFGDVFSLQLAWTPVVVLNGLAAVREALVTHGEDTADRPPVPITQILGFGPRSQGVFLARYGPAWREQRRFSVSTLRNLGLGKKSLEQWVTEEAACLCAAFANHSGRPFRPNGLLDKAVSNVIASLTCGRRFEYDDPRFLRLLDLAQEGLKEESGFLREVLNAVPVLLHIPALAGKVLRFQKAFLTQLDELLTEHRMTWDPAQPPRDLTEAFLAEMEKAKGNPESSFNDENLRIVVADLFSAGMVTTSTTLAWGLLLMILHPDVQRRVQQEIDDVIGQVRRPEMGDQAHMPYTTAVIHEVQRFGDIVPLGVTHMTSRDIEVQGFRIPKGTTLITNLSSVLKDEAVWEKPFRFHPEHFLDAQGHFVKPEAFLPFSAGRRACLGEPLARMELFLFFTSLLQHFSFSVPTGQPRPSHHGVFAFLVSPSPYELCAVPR
Can you tell me inhibition at 450 min, 10 µM for the items I'm about to list?
Give just the numeric value; % need not be written.

Prompt: If you can, please state the reported inhibition at 450 min, 10 µM value of COc1c(C)cc2c(c1O)[C@@H]1C3[C@@H]4SC[C@]5(C(=O)COC[C@@H](c6c7c(c(C)c(OC(C)=O)c64)OCO7)N3[C@@H](O)[C@H](C2)N1C)c1[nH]c2ccc(O)cc2c1CCN5C (stereo partly shown) [Compound 33] .
Completion: 28

Prompt: Note, next up: COc1ccc2[nH]c3c(c2c1)CCN[C@]31CS[C@@H]2c3c(OC(C)=O)c(C)c4c(c3[C@H](COCC1=O)N1C2[C@H]2c3c(cc(C)c(OC)c3O)C[C@@H]([C@@H]1O)N2C)OCO4 (stereo partly shown) [Compound 27]
Completion: 13

Prompt: Note, next up: COc1c(C)cc2c(c1OC(=O)OC(C)(C)C)[C@@H]1C3[C@@H]4SC[C@]5(NCCc6c5[nH]c5ccccc65)C(=O)COC[C@@H](c5c6c(c(C)c(OC(C)=O)c54)OCO6)N3[C@@H](O)[C@H](C2)N1C (stereo partly shown) [Compound 46]
Completion: 16

Prompt: Note, next up: COc1ccc2c3c([nH]c2c1)[C@@]1(CS[C@@H]2c4c(OC(C)=O)c(C)c5c(c4[C@H](COCC1=O)N1C2[C@H]2c4c(cc(C)c(OC)c4O)C[C@@H]([C@@H]1O)N2C)OCO5)NCC3 (stereo partly shown) [Compound 34]
Completion: 28
